Target: Prostaglandin G/H synthase 1 (Rattus norvegicus, UniProt Q63921)
Sequence (Q63921 whole entry): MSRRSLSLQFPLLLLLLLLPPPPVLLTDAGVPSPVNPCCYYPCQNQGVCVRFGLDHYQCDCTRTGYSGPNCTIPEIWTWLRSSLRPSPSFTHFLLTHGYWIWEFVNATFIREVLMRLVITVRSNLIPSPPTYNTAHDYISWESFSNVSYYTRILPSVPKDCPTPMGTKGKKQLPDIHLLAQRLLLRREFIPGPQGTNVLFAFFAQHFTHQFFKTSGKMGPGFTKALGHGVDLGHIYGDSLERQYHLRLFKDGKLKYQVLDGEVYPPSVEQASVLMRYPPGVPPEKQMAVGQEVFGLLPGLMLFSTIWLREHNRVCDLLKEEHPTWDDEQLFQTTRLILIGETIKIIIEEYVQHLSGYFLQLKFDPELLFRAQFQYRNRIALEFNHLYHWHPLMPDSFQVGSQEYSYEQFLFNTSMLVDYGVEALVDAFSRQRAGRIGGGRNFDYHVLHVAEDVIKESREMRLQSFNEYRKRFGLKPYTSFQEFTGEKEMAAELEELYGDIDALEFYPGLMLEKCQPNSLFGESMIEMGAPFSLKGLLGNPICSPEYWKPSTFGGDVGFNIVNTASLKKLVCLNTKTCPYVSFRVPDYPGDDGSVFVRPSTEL
Multi-source literature compilation: log10 of IC50 on Prostaglandin G/H synthase 1 (Rattus norvegicus, UniProt Q63921).
Scale type: logarithmic (base 10). Underlying IC50 unit: µM.

Here is how some compounds turned out for log10 of IC50.
Compound: CCC(C(=O)O)c1ccc(Cc2ccc(F)cc2)c2ccc(OC)cc12 (stereo not given)
Target desc: Prostaglandin G/H synthase 1 (Rattus norvegicus, UniProt Q63921)
Measured metric: log10 of IC50
Quantitative result: 0.86

Compound: COc1ccc2c(Cc3ccc(C(C)=O)cc3)ccc(C(C)C(=O)O)c2c1 (stereo not given)
Target desc: Prostaglandin G/H synthase 1 (Rattus norvegicus, UniProt Q63921)
Measured metric: log10 of IC50
Quantitative result: 2.34

Compound: COc1ccc2c(Cc3ccc(Cl)cc3)ccc(C(C)C(=O)O)c2c1 (stereo not given)
Target desc: Prostaglandin G/H synthase 1 (Rattus norvegicus, UniProt Q63921)
Measured metric: log10 of IC50
Quantitative result: 0.61

Compound: CC(C(=O)O)c1ccc2c(c1)Cc1cccnc1O2 (stereo not given)
Target desc: Prostaglandin G/H synthase 1 (Rattus norvegicus, UniProt Q63921)
Measured metric: log10 of IC50
Quantitative result: -0.41

Compound: COc1ccc2c(c1)c(C(C)C(=O)O)c(C)n2Cc1ccc(Cl)cc1 (stereo not given)
Target desc: Prostaglandin G/H synthase 1 (Rattus norvegicus, UniProt Q63921)
Measured metric: log10 of IC50
Quantitative result: 1.04

Now for another entry.
Ask: Give the measured log10 of IC50 of CC(C(=O)O)c1ccc(Cc2ccc(F)cc2)c2ccccc12 (stereo not given) .
Result: 0.38
